# Experimental target: Strep-TM4SF5 obtained from HEK293FT (Homo sapiens, UniProt O14894)
# Construct: expressed in transfected cells; host or cells: HEK293FT, transient transfection (48 h); protein captured on streptavidin agarose from the cell extract
# Sequence (O14894 1-197): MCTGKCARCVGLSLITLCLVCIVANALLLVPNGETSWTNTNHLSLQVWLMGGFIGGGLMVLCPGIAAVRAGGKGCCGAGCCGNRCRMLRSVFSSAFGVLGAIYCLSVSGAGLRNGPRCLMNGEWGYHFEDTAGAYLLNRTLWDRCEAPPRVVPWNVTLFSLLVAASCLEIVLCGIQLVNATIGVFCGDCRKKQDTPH
# Assay summary: Binding of 14C-labelled ST-5-002 to pulled-down Strep-TM4SF5
# Run conditions: 14C-labelled ST-5-002, Strep-TM4SF5, 4°C, 1 hour (FIG. 19a); read-out: EC50 of binding to TM4SF5
# Procedure: For Huh7KO cells, stable cell lines were established by infecting with a retrovirus inducing the expression of pBabe-HA-EV or pBabe-HA-TM4SF5. […] Subsequently, in the presence or absence of cold ST-5-002 (400 µM), the samples were treated with ^14C-labelled ST-5-002 (10 or 25 µM) and reacted at 4°C for 1 hour, after which radioactive isotope values were repeatedly measured using a TriCarb scintillation counter (PerkinElmer, Waltham, MA). […]
Endpoint: EC50 (µM)
Express your answer in µM, writing the number without its unit.

Query: Output EC50 of Cc1ccc(C(=O)Nc2ccc(-c3cc(-c4ccc(O)cc4)no3)cc2)cc1
Result: 8.87
